target: Rac GTPase-activating protein 1 (Homo sapiens) (UniProt Q9H0H5); assay: blockers of MgcRacGAP-driven Rac1 GTP hydrolysis – biochemical, ADP Hunter fluorescence, primary and confirmatory, confirmation (AID 624330); details: MgcRacGAP-stimulated Rac1 GTP hydrolysis, at 30 µM, hits give high values, GST-tagged Rac1 F28L mutant substrate;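 note: fluorescence reports GDP produced by GAP-driven GTP hydrolysis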
Sequence (Q9H0H5 whole entry, looked up): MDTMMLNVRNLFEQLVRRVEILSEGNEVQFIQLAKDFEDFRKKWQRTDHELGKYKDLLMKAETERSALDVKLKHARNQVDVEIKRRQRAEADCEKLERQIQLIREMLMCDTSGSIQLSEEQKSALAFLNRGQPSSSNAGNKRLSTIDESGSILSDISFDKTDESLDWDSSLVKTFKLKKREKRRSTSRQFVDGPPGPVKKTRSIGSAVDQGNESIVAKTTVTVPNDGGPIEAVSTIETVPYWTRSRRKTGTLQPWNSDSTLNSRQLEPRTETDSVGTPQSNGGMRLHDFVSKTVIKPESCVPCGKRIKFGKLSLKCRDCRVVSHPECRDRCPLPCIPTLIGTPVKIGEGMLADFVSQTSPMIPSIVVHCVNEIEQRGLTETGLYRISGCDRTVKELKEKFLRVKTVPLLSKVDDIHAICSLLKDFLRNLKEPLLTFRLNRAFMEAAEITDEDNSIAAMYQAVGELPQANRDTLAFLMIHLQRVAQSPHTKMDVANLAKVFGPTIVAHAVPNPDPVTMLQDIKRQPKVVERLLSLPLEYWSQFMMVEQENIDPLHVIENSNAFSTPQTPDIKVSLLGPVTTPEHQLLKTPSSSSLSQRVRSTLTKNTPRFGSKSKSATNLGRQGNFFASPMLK
The campaign covered roughly 340,000 compounds. About 2,100 (0.62%) were called active. Not all results are given here. Entries with a potency or affinity are not part of this list.
Each entry below lists one item and its recorded inhibition value.

Some molecules with known inhibition results, for comparison:
{"molecule": "Cc1cccnc1NC(=O)CCCNC(=O)c1ccc(Cl)cc1", "inhibition": "5.51% (inactive)"}
{"molecule": "Cc1cccc(C)c1Nc1n[nH]c(=S)s1", "inhibition": "13.1% (inactive)"}
{"molecule": "CC1CCCN(CCCOc2ccccc2-c2ccccc2)C1 (stereo unspecified)", "inhibition": "18.1% (inactive)"}
{"molecule": "COc1ccc(/C=C/C(=O)OCC(=O)NCCCc2ccccc2)cc1OC", "inhibition": "1.47% (inactive)"}
{"molecule": "Cc1cc(C)c(Nc2n[nH]c(=S)s2)cc1C", "inhibition": "29.6% (inactive)"}

Moving on to the next molecule.
INPUT: Using the record for NC(=S)N/N=C/c1cn(CCC(=O)O)nc1-c1cccc(Br)c1 , state its measured inhibition.
OUTPUT: 12.2% (inactive)

Ref: PubChem BioAssay AID624330
